Kindly supply the reported cytotoxicity at 72 h, 0.41 µM values for the records listed here.
- experiment: In vitro cytotoxicity by MTT assay, HEK 293
- Type: cell-based, human
- test-parameters: human, HEK 293 cells, 0.41 μM, read-out: % cytotoxicity (100 − % cell survival) of HEK 293 cell line
Numeric only. Scale: %

cytotoxicity at 72 h, 0.41 µM for Nc1nnc(S(=O)(=O)NC(=O)c2ccccc2)s1 is 28.2

cytotoxicity at 72 h, 0.41 µM for Nc1nnc(S(=O)(=O)NC(=O)c2ccc(Cl)cc2)s1 is 45.1

cytotoxicity at 72 h, 0.41 µM for COc1cc(C=Nc2nnc(S(=O)(=O)NC(=O)c3ccccc3)s2)ccc1O is 31.1

cytotoxicity at 72 h, 0.41 µM for Nc1ccc(C(=O)NS(=O)(=O)c2nnc(N)s2)cc1 is 39.9

cytotoxicity at 72 h, 0.41 µM for CC(=O)Nc1ccc(S(=O)(=O)Nc2nnc(S(=O)(=O)NC(=O)c3cccc([N+](=O)[O-])c3)s2)cc1 is 49.1

cytotoxicity at 72 h, 0.41 µM for CC(=O)Nc1ccc(S(=O)(=O)Nc2nnc(S(=O)(=O)NC(=O)c3ccc([N+](=O)[O-])cc3)s2)cc1 is 45.3

cytotoxicity at 72 h, 0.41 µM for Nc1nnc(S(=O)(=O)NC(=O)c2cccc([N+](=O)[O-])c2)s1 is 28.9
